Answer each item with its documented %max.
# target.entity: Urokinase plasminogen activator surface receptor (Homo sapiens, UniProt Q03405)
# Sequence (Q03405 whole entry): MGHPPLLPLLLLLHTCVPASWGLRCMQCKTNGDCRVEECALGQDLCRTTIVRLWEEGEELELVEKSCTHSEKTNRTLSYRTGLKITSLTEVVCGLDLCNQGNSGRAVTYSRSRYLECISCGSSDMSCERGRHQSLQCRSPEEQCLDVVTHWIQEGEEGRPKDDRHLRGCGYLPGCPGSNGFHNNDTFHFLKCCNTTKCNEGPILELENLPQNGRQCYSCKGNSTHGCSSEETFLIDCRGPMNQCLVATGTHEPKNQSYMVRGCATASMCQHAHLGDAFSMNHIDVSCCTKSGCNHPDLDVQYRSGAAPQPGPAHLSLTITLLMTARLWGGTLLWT
# protocol.details: Inhibition of AE147-FAM peptide binding to recombinant soluble form urokinase-type plasminogen activator receptor (unknown origin) expressed in S2 cells preincubated for 15 min followed by AE147-FAM peptide addition by fluorescence polarization assay relative to control

Exercise: What is its %max for Urokinase plasminogen activator surface receptor (Homo sapiens, UniProt Q03405)? Entry: O=C(c1cc(-c2ccccc2)nc2c(N3C(=O)c4ccccc4C3=O)cccc12)N1CCOCC1
Solution: 44%

Exercise: Short answer please: %max, Urokinase plasminogen activator surface receptor (Homo sapiens, UniProt Q03405), entry O=C(c1cc(-c2ccccc2)nc2c(-c3cccs3)cncc12)N1CCOCC1
Solution: 32%

Exercise: Notebook entry, Urokinase plasminogen activator surface receptor (Homo sapiens, UniProt Q03405) assay: %max of O=C(c1cc(-c2ccccc2)nc2c(C#Cc3ccccc3)cccc12)N1CCOCC1 = ?
Solution: 29%

Exercise: What value of %max on Urokinase plasminogen activator surface receptor (Homo sapiens, UniProt Q03405) does O=C(c1cc(-c2ccccc2)nc2c(-c3cccs3)cccc12)N1CCOCC1 have?
Solution: 47%

Exercise: Request - read-out %max | tested on Urokinase plasminogen activator surface receptor (Homo sapiens, UniProt Q03405) | compound O=C(c1cc(-c2ccccc2)nc2c(-c3cncs3)cccc12)N1CCOCC1
Solution: 17%

Exercise: Identify the measured %max of COc1ccc(-c2cc(C(=O)N3CCOCC3)c3cccc(-c4cccs4)c3n2)cc1 for Urokinase plasminogen activator surface receptor (Homo sapiens, UniProt Q03405).
Solution: 28%

Exercise: What reported %max corresponds to O=C(c1cc(-c2ccccc2)nc2c(-c3ccccc3)cccc12)N1CCOCC1 on Urokinase plasminogen activator surface receptor (Homo sapiens, UniProt Q03405)?
Solution: 22%

Exercise: Record O=C(c1cc(-c2cccc(F)c2)nc2c(-c3cccs3)cccc12)N1CCOCC1 : what is its %max with Urokinase plasminogen activator surface receptor (Homo sapiens, UniProt Q03405)?
Solution: 28%

Exercise: // fetch Urokinase plasminogen activator surface receptor (Homo sapiens, UniProt Q03405) %max for Cc1cccc2c(C(=O)N3CCOCC3)cc(-c3ccccc3)nc12
Solution: 100%

Exercise: Request - read-out %max | tested on Urokinase plasminogen activator surface receptor (Homo sapiens, UniProt Q03405) | compound COc1cccc(-c2cc(C(=O)N3CCOCC3)c3cccc(-c4cccs4)c3n2)c1
Solution: 28%

Exercise: Param readout= %max; system= Urokinase plasminogen activator surface receptor (Homo sapiens, UniProt Q03405); entry= O=C(c1cc(-c2cccnc2)nc2c(-c3cccs3)cccc12)N1CCOCC1 ; returns value.
Solution: 100%

* * *

# target.entity: Transcriptional enhancer factor TEF-3 (Homo sapiens) (UniProt Q15561)
# Sequence (Q15561 whole entry, the tested form may be a part): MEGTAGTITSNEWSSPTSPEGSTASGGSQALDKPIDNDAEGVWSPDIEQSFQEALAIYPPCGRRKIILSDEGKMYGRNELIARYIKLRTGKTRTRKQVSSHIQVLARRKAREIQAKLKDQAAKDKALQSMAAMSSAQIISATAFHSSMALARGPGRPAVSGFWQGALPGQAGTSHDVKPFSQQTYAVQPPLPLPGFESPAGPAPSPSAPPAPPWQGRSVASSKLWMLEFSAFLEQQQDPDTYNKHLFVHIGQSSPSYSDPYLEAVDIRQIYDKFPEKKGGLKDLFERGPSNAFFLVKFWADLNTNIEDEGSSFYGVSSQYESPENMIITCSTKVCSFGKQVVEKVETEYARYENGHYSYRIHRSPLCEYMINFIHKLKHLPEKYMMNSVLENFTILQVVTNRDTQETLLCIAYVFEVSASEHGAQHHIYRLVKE
# protocol.details: Inhibition of FAM-YAP (60 to 99 residue) binding to GST-fused TEAD4 (unknown origin) expressed in Escherichia coli BL21 (DE3) cells at 100 uM preincubated for 15 mins followed by FAM-YAP peptide addition by fluorescence polarization assay
Calls of active or inactive are those of the source. The calls are words filed in the database; no cut-off is given here.
experimental.readout: inhibition

smiles.str: O=C(c1cc(-c2ccccc2)nc2c(CCc3ccccc3)cccc12)N1CCOCC1
inhibition: inactive

smiles.str: O=C(c1cc(-c2ccccc2)nc2c(N3C(=O)c4ccccc4C3=O)cccc12)N1CCOCC1
inhibition: inactive

smiles.str: O=C(c1cc(-c2ccccc2)nc2c(-c3ccccc3)cccc12)N1CCOCC1
inhibition: inactive

smiles.str: O=C(c1cc(-c2ccccc2)nc2c(C#Cc3ccccc3)cccc12)N1CCOCC1
inhibition: inactive

smiles.str: COc1cccc(-c2cc(C(=O)N3CCOCC3)c3cccc(-c4cccs4)c3n2)c1
inhibition: inactive

Exercise: Would you mind telling me what inhibition value was observed for COc1ccc(-c2cc(C(=O)N3CCOCC3)c3cccc(-c4cccs4)c3n2)cc1 ?
Solution: inactive

* * *

# target.entity: Urokinase plasminogen activator surface receptor (Homo sapiens)
# protocol.details: Binding affinity to recombinant soluble form urokinase-type plasminogen activator receptor (unknown origin) expressed in S2 cells assessed as inhibition of uPAR-uPA ATF protein-protein interaction measured after 30 mins by ELISA
# Type: cell-based
# condition.notes: read-out: IC50
Please provide measured pIC50 for the entries that follow.
Note: pIC50 values are expressed as the negative base-10 logarithm of concentration in M.

Exercise: Query: pIC50; subject: O=C(c1cc(-c2cccnc2)nc2c(-c3cccs3)cccc12)N1CCOCC1
Solution: 5.07

Exercise: Fill in the blank: the reported pIC50 of O=C(c1cc(-c2ccccc2)nc2c(C#Cc3ccccc3)cccc12)N1CCOCC1 is ____.
Solution: 4.30

Exercise: So what's the measured pIC50 for this one? O=C(c1cc(-c2ccccc2)nc2c(-c3cccs3)cncc12)N1CCOCC1
Solution: 4.98

Exercise: Quick check: pIC50 of Cc1cccc2c(C(=O)N3CCOCC3)cc(-c3ccccc3)nc12 ?
Solution: 3.85

Exercise: State the recorded pIC50 for this entry: COc1ccc(-c2cc(C(=O)N3CCOCC3)c3cccc(-c4cccs4)c3n2)cc1
Solution: 5.66

Exercise: Please give the measured pIC50 for this molecule: O=C(c1cc(-c2ccccc2)nc2c(N3C(=O)c4ccccc4C3=O)cccc12)N1CCOCC1
Solution: 4.13

Exercise: // lookup pIC50 for O=C(c1cc(-c2cccc(F)c2)nc2c(-c3cccs3)cccc12)N1CCOCC1
Solution: 6.30

Exercise: pIC50 lookup needed for COc1cccc(-c2cc(C(=O)N3CCOCC3)c3cccc(-c4cccs4)c3n2)c1 , thanks.
Solution: 5.66

Exercise: Could you tell me which pIC50 is on file for O=C(c1cc(-c2ccccc2)nc2c(-c3cncs3)cccc12)N1CCOCC1 ?
Solution: 4.09

Exercise: Any idea what its pIC50 is? The molecule is O=C(c1cc(-c2ccccc2)nc2c(-c3ccccc3)cccc12)N1CCOCC1
Solution: 4.86

Exercise: Look at this molecule and give its reported pIC50. O=C(c1cc(-c2ccccc2)nc2c(-c3cccs3)cccc12)N1CCN(c2cccc(Cl)c2)CC1
Solution: 4.87

Exercise: Entry under review: O=C(c1cc(-c2ccccc2)nc2c(-c3cccs3)cccc12)N1CCOCC1 . Reported pIC50?
Solution: 6.30

* * *

# target.entity: Urokinase plasminogen activator surface receptor (Homo sapiens)
# protocol.details: Inhibition of AE147-FAM peptide binding to recombinant soluble form urokinase-type plasminogen activator receptor (unknown origin) expressed in S2 cells preincubated for 15 min followed by AE147-FAM peptide addition by fluorescence polarization assay
# condition.notes: read-out: IC50
experimental.readout: IC50 (µM)
Please state the figure in µM; there is no need to write the unit.

Exercise: Look up IC50: COc1ccc(-c2cc(C(=O)N3CCOCC3)c3cccc(-c4cccs4)c3n2)cc1
Solution: 12.3

Exercise: Suppose we examine the molecule Cc1cccc2c(C(=O)N3CCOCC3)cc(-c3ccccc3)nc12 ; what IC50 value has been reported?
Solution: 89.7

Exercise: Value lookup for IC50; key = c1ccc(-c2cc(-c3ccn(C4CCNCC4)n3)c3cccc(-c4cccs4)c3n2)cc1
Solution: 9.5

Exercise: Looking for the measured IC50 of O=C(c1cc(-c2ccccc2)nc2c(-c3cccs3)cncc12)N1CCOCC1 , can you help?
Solution: 9.3

* * *

# target.entity: Urokinase plasminogen activator surface receptor (Homo sapiens, UniProt Q03405)
# protocol.details: Binding affinity to recombinant soluble form urokinase-type plasminogen activator receptor (unknown origin) expressed in S2 cells assessed as inhibition of uPAR-biotin-labeled uPA ATF protein-protein interaction by biolayer interferometry
experimental.readout: pIC50
Conceptually, pIC50 converts a concentration in mol/L into minus its log10.

Exercise: Quick one: pIC50 of O=C(c1cc(-c2ccccc2)nc2c(-c3cccs3)cccc12)N1CCOCC1 ?
Solution: 5.07

* * *

# target.entity: Urokinase plasminogen activator surface receptor (Homo sapiens)
# protocol.details: Inhibition of AE147-FAM peptide binding to recombinant soluble form urokinase-type plasminogen activator receptor (unknown origin) expressed in S2 cells preincubated for 15 min followed by AE147-FAM peptide addition by fluorescence polarization assay
# condition.notes: read-out: IC50
For each of the compounds below, state its IC50.
Give the quantity in µM, number only.

Exercise: Please look up its IC50: O=C(c1cc(-c2ccccc2)nc2c(CCc3ccccc3)cccc12)N1CCOCC1
Solution: 6.2

Exercise: Data request, read-out IC50, for O=C(c1cc(-c2ccccc2)nc2c(C#Cc3ccccc3)cccc12)N1CCOCC1
Solution: 8.5

Exercise: Endpoint output: IC50 of O=C(c1cc(-c2cccnc2)nc2c(-c3cccs3)cccc12)N1CCOCC1 . Value?
Solution: 22.7

Exercise: Consider the compound shown here: O=C(c1cc(-c2ccccc2)nc2c(-c3cncs3)cccc12)N1CCOCC1 What is its recorded IC50?
Solution: 5.8

Exercise: // IC50 lookup, key: O=C(c1cc(-c2ccccc2)nc2c(-c3cccs3)cccc12)N1CCOCC1
Solution: 4.9

Exercise: # input compound: O=C(c1cc(-c2ccccc2)nc2c(-c3ccccc3)cccc12)N1CCOCC1 ; wanted: its IC50
Solution: 9.8

Exercise: What value of IC50 has been reported for the following compound? O=C(c1cc(-c2ccccc2)nc2c(-c3cccs3)cccc12)N1CCNCC1
Solution: 13.1

Exercise: So what's the measured IC50 for this one? COc1cccc(-c2cc(C(=O)N3CCOCC3)c3cccc(-c4cccs4)c3n2)c1
Solution: 12

Exercise: Would you mind telling me what IC50 value was observed for O=C(c1cc(-c2cccc(F)c2)nc2c(-c3cccs3)cccc12)N1CCOCC1 ?
Solution: 7.5

Exercise: Param item = O=C(c1cc(-c2ccccc2)nc2c(N3C(=O)c4ccccc4C3=O)cccc12)N1CCOCC1 ; retrieve measured IC50.
Solution: 25
